Reported T/C is given for each of the following molecules.
- Test system: P388 leukemia ip, CD2F1 mice, survival T/C
- TEST_PROTOCOL: NCI In Vivo Anticancer Drug Screen. Data for tumor model P388 Leukemia (intraperitoneal) in CD2F1 (CDF1) mice
- CONDITIONS_USED: endpoint: median survival time; dose: 240.0 mg/kg/injection; schedule: Q01DX005 (ip); vehicle: Klucel (hydroxypropylcellulose) (HPC); higher = longer survival
Inconclusive results and toxic doses are left out.

Study these solved cases before continuing.
{"columns": ["MOLECULE", "T/C"],
 "data": [
  ["CCC(=O)CC1(C(=O)OC)NC(=S)NC(=O)C1C#N (stereo unspecified)", "100 % of control"],
  ["Clc1ccc(-c2cc(-c3cc(-c4ccc(Cl)c(Cl)c4)n[nH]3)[nH]n2)cc1Cl", "96 % of control"],
  ["O=C(c1ccccc1)C(NCc1ccccc1)(Nc1ccccn1)c1ccccc1 (stereo unspecified)", "89 % of control"],
  ["c1ccc(Cn2ccnc2CSCCSCc2nccn2Cc2ccccc2)cc1", "97 % of control"],
  ["O=C(O)CSc1ccc([N+](=O)[O-])cc1[N+](=O)[O-]", "109 % of control"]
]}

Turning now to a further record.
-- ask Observed T/C on P388 leukemia ip, CD2F1 mice, survival T/C for Fc1cccc(Cl)c1C(Nc1nc2ccccc2s1)Nc1nc2ccccc2s1 , please.
-- reply 95 % of control

====

- Test system: P388 leukemia ip, CD2F1 mice, survival T/C
- TEST_PROTOCOL: NCI In Vivo Anticancer Drug Screen. Data for tumor model P388 Leukemia (intraperitoneal) in CD2F1 (CDF1) mice
- CONDITIONS_USED: endpoint: median survival time; dose: 12.5 mg/kg/injection; schedule: Q01DX005 (ip); vehicle: Klucel (hydroxypropylcellulose) (HPC); higher = longer survival
Inconclusive results and toxic doses are left out.
RESULT_TYPE: T/C

Study these solved cases before continuing.
{"columns": ["COMPOUND", "MEASURED_ON", "T/C"],
 "data": [
  ["c1ccc2c(Nc3ccc4c(c3)OCO4)c3c(nc2c1)CCCC3", "P388 leukemia ip, CD2F1 mice, survival T/C", "102 % of control"],
  ["O=S(=O)(F)c1nc(Cl)c2[nH]cnc2n1", "P388 leukemia ip, CD2F1 mice, survival T/C", "106 % of control"],
  ["C1CC2CC1CC2CNCC1CC2CCC1C2 (stereo not given)", "P388 leukemia ip, CD2F1 mice, survival T/C", "103 % of control"],
  ["CCNc1nc(NC(C)C)nc(-c2ccncc2)n1", "P388 leukemia ip, CD2F1 mice, survival T/C", "108 % of control"],
  ["c1cnc2ccc3ncccc3c2c1", "P388 leukemia ip, CD2F1 mice, survival T/C", "99 % of control"]
]}

-- ask Given the compound C1=CCC(CC[Si]23OCCN(CCO2)CCO3)CC1 (stereo not given) , what is its reported T/C?
-- reply 103 % of control

-- ask Another compound to look at: C[C@]12C[C@@H](O)[C@H]3[C@@H](CCC4=C(O)C(=O)CC[C@@]43C)[C@@H]1CC[C@@H]2O
-- reply 97 % of control

-- ask Another compound to look at: C[n+]1cc(-c2ccccc2)cc(-c2ccccc2)c1
-- reply 104 % of control

-- ask Another compound to look at: COc1ncnc2c1ccn2C1OC(CO)C(O)C1O (stereo not given)
-- reply 89 % of control

-- ask Another compound to look at: CCc1nc(N)nc(N)c1-c1ccc(N2CCOCC2)c(N=[N+]=[N-])c1
-- reply 100 % of control

====

Reported T/C is given for each of the following compounds.
- System: P388 leukemia ip, CD2F1 mice, survival T/C
- TEST_PROTOCOL: NCI In Vivo Anticancer Drug Screen. Data for tumor model P388 Leukemia (intraperitoneal) in CD2F1 (CDF1) mice
- CONDITIONS_USED: endpoint: median survival time; dose: 200.0 mg/kg/injection; schedule: Q01DX009 (ip); vehicle: Klucel (hydroxypropylcellulose) (HPC); higher = longer survival
Inconclusive results and toxic doses are left out.

Study these solved cases before continuing.
{"columns": ["COMPOUND", "T/C"],
 "data": [
  ["CC(=O)C1C(=O)C(=O)N(c2cc(C)ccc2O)C1=O (centres undefined)", "104 % of control"],
  ["O=C(N/N=C\\c1cc([N+](=O)[O-])ccc1O)C(=O)N/N=C\\c1cc([N+](=O)[O-])ccc1O", "99 % of control"],
  ["CCOC1N=C(c2ccccc2)c2cc(Cl)ccc2NC1=O (centres undefined)", "93 % of control"]
]}

-- ask Given the compound O=C1NC(=O)C(SSC2C(=O)NC(=O)NC2=O)C(=O)N1 , what is its reported T/C?
-- reply 94 % of control

====

- Test system: P388 leukemia ip, CD2F1 mice, survival T/C
- TEST_PROTOCOL: NCI In Vivo Anticancer Drug Screen. Data for tumor model P388 Leukemia (intraperitoneal) in CD2F1 (CDF1) mice
- CONDITIONS_USED: endpoint: median survival time; dose: 240.0 mg/kg/injection; schedule: Q01DX005 (ip); vehicle: saline with Tween-80; higher = longer survival
- Experimental: The antitumor activity of compounds was measured in mice bearing transplantable tumors. Survival or tumor size were measured and the results are expressed as the measurement made in the treated group (T) divided by the measurement made in the vehicle treated control group (C). The tumor model used in this assay is P388 Leukemia (intraperitoneal) in CD2F1 (CDF1) mice
Toxic doses and inconclusive results are not listed.
RESULT_TYPE: T/C

{"columns": ["COMPOUND", "MEASURED_ON", "T/C"],
 "data": [
  ["Cc1ccc2nc(CC(=O)c3ccc(F)cc3)c(=O)[nH]c2c1", "P388 leukemia ip, CD2F1 mice, survival T/C", "107 % of control"],
  ["CS(=O)(=O)N1CCCN(S(C)(=O)=O)COC1", "P388 leukemia ip, CD2F1 mice, survival T/C", "101 % of control"],
  ["CCOC(=O)/C(C#N)=C(\\CC)c1cc(Cl)cc(Cl)c1O", "P388 leukemia ip, CD2F1 mice, survival T/C", "96 % of control"]
]}

-- ask Given the compound CN1C(c2ccccc2)=C(C#N)C(=O)CC(c2cccs2)N1C (centres undefined) , what is its reported T/C?
-- reply 86 % of control

====

- Test system: P388 leukemia ip, CD2F1 mice, survival T/C
- TEST_PROTOCOL: NCI In Vivo Anticancer Drug Screen. Data for tumor model P388 Leukemia (intraperitoneal) in CD2F1 (CDF1) mice
- CONDITIONS_USED: endpoint: median survival time; dose: 200.0 mg/kg/injection; schedule: Q01DX005 (ip); vehicle: saline with Tween-80; higher = longer survival
Inconclusive results and toxic doses are left out.
RESULT_TYPE: T/C

-- ask Given the compound CC(NNC(=S)N1CCCCCC1)c1cc2ccccc2cn1 (stereo unspecified) , what is its reported T/C?
-- reply 123 % of control

-- ask Another compound to look at: CCOC(=O)NC(Cc1cc(OC)c(OC)cc1Br)c1ccc(OC)c(OC)c1 (stereo unspecified)
-- reply 100 % of control

-- ask Another compound to look at: COC(=O)[C@H]1[C@H]2C[C@@H]3c4[nH]c5cc(OC)ccc5c4CCN3C[C@H]2C[C@@H](OC(=O)c2ccc(N)cc2)[C@@H]1OC
-- reply 94 % of control

-- ask Another compound to look at: NC(=O)N=Nc1ccc(Cl)cc1
-- reply 104 % of control

-- ask Another compound to look at: O=C(/C=C/C1CCCC(O)C1)C1CCCCC1 (stereo unspecified)
-- reply 91 % of control

-- ask Another compound to look at: O=C1CS(=O)(=O)CN1N1CS(=O)(=O)CC1=O
-- reply 98 % of control

-- ask Another compound to look at: O=C1c2ccccc2-c2c1c1ccccc1c(=O)n2-c1cccnc1
-- reply 97 % of control

-- ask Another compound to look at: COc1cccc(OC)c1C(=O)Nc1cccc(NC(=O)c2c(OC)cccc2OC)n1
-- reply 93 % of control

-- ask Another compound to look at: CC1=C(C#N)C2(N)OC1(C)C1C(=O)C=CC(=O)C12 (stereo unspecified)
-- reply 108 % of control

-- ask Another compound to look at: COc1ccc(C(C)c2cc3c(cc2OC(C)=O)OCO3)cc1 (stereo unspecified)
-- reply 93 % of control

-- ask Another compound to look at: CCC1c2ccccc2[C@H]2C(c3ccccc3)=NN(c3ccccc3)[C@H]2N1CC (stereo partly specified)
-- reply 90 % of control

====

Reported T/C is given for each of the following molecules.
- Tested on: P388 leukemia ip, CD2F1 mice, survival T/C
- TEST_PROTOCOL: NCI In Vivo Anticancer Drug Screen. Data for tumor model P388 Leukemia (intraperitoneal) in CD2F1 (CDF1) mice
- CONDITIONS_USED: endpoint: median survival time; dose: 50.0 mg/kg/injection; schedule: Q01DX005 (ip); vehicle: saline with Tween-80; higher = longer survival
Inconclusive results and toxic doses are left out.

{"columns": ["MOLECULE", "T/C"],
 "data": [
  ["OC1COC(c2nn(-c3ccccc3)c3nc4ccccc4nc23)C1O (stereo not drawn)", "87 % of control"]
]}

-- ask Given the molecule CC(C)(C)SC(=S)SCC(=O)c1cc2ccccc2o1 , what is its reported T/C?
-- reply 100 % of control

-- ask Another molecule to look at: CC1(C)C(=NOCc2ccccc2)C(C)(C)C1=NOCc1ccccc1
-- reply 91 % of control

-- ask Another molecule to look at: CCCCC(CCCC)=NO
-- reply 108 % of control

-- ask Another molecule to look at: Cc1cc(=O)n(-c2ccc(-c3ccc(-n4c(C)c(C(=O)O)c(C)cc4=O)cc3)cc2)c(C)c1C(=O)O
-- reply 102 % of control

-- ask Another molecule to look at: C=CC1CC(NC(=O)c2ccccc2)C(=O)O1 (stereo not drawn)
-- reply 101 % of control
